# System name: 5-HT1A receptor (Rattus norvegicus, UniProt P19327)
# Construct: The cerebral cortex was homogenized in 10 volumes of ice-cold Tris buffer; from tissue; host or cells: rat cerebral cortex membranes
# Sequence (P19327 1-422): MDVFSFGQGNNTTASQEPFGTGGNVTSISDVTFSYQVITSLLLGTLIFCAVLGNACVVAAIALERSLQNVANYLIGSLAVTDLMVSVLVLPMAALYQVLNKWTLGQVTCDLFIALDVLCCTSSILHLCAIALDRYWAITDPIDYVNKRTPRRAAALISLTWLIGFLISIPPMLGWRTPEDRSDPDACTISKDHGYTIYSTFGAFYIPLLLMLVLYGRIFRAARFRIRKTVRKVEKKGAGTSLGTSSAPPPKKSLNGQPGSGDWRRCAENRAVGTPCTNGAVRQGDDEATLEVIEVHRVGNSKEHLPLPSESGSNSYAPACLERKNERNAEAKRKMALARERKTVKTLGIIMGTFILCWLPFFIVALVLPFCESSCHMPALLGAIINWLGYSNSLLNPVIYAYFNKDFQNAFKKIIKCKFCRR
# Experiment notes: Radioligand binding assay, 5-HT1A receptor ([3H]-8-OH-DPAT, rat cerebral cortex membranes)
Readout kind: pKi
Conceptually, pKi converts a concentration in mol/L into minus its log10.

Input line: Suppose we examine the compound Cc1ccc(N2CCN(CCCCN3C(=O)C4CCCN4C3=O)[C@@H](C)C2)c2ccccc12 (mixture of isomers) [(p)] ; what pKi value has been reported?
Output line: 7.82

The origin of these recorded values is patent US20090036455A1.
